Tested on: A549 lung carcinoma cells
ASSAY_INFO: Colony formation assay, A549 cells
Type: cell-based, human
EXPERIMENTAL_CONTEXT: colony formation dose response (FIG. 7C)

{"ENTRY_SMILES": "CCOc1ccc(C=C2SC(=O)N(CCN)C2=O)cc1", "IC50": "~25 µM"}
{"ENTRY_SMILES": "O=C(CCN1CCN(C/C=C/c2ccccc2)CC1)Nc1ccc(Cl)cc1", "IC50": "~15 µM"}

* * *

Tested on: ERK-mediated phosphorylation of Rsk-1 on Thr573
ASSAY_INFO: ERK-mediated Rsk-1 phosphorylation (Thr573), immunoblot and densitometry in EGF-stimulated HeLa cells
Format: cell-based, human
EXPERIMENTAL_CONTEXT: immunoblot
MEASURED_ENDPOINT: effect on ERK-mediated Rsk-1 phosphorylation (in words)

{"MOLECULE": "CC(Oc1ccc(C=C2NC(=S)NC2=O)cc1)C(=O)O (stereo not drawn)", "TGT": "ERK-mediated phosphorylation of Rsk-1 on Thr573", "RESULT_VALUE": "most effective"}
{"MOLECULE": "NC(=N[N+](=O)[O-])N/N=C/c1ccc(-c2cccc([N+](=O)[O-])c2)o1", "TGT": "ERK-mediated phosphorylation of Rsk-1 on Thr573", "RESULT_VALUE": "most effective"}
{"MOLECULE": "COc1cc(C=C2NC(=O)NC2=O)ccc1OCc1ccc(Br)cc1", "TGT": "ERK-mediated phosphorylation of Rsk-1 on Thr573", "RESULT_VALUE": "most effective"}

* * *

System: HeLa, A549, or SUM-159 cells
ASSAY_INFO: Colony formation assay, screen of test compounds (FIG. 7A)
Assay type: cell-based, human
Parameters: dose or concentration left out as unconfirmed
EXPERIMENTAL_CONTEXT: FIG. 7A screen as printed
MEASURED_ENDPOINT: effect on colony formation / cell proliferation (in words)

{"ENTRY_SMILES": "CN(C)CCNC(=O)c1ccc(-c2ccccc2)cc1", "TGT": "HeLa, A549, or SUM-159 cells", "RESULT_VALUE": "little effect"}
{"ENTRY_SMILES": "COc1ccc(CN2CCNCC2)cc1", "TGT": "HeLa, A549, or SUM-159 cells", "RESULT_VALUE": "little effect"}
{"ENTRY_SMILES": "O=C(CCN1CCN(C/C=C/c2ccccc2)CC1)Nc1ccc(Cl)cc1", "TGT": "HeLa, A549, or SUM-159 cells", "RESULT_VALUE": "completely inhibited"}
{"ENTRY_SMILES": "CCOc1ccc(C=C2SC(=O)N(CCN)C2=O)cc1", "TGT": "HeLa, A549, or SUM-159 cells", "RESULT_VALUE": "completely inhibited"}

Just for reference, patent US20070066616A1 is where these values come from.
